- Test method notes: Bioavailability of amikacin from inhaled liposomal amikacin formulations: lung homogenate levels
- Test context: CD IGS, rat, in vivo, 5 mg/kg
Readout label: concentration at 24 h

Query string: Determine from records and report concentration at 24 h for NCC[C@H](O)C(=O)N[C@@H]1C[C@H](N)[C@@H](O[C@H]2O[C@H](CN)[C@@H](O)[C@H](O)[C@H]2O)[C@H](O)[C@H]1O[C@H]1O[C@H](CO)[C@@H](O)[C@H](N)[C@H]1O [Free amikacin, amikacin]
Result string: ~500000 ng/g

* * *

- Test method notes: Clinical chemical assay (TDX) of aminoglycoside content in tissue of treated infected rats
- Format: in vivo
- Test context: Sprague-Dawley, rat, kidney, other: intratracheal (IT), 10 mg/rat; kidneys, following the 14 day experiment; read-out: detectable levels of aminoglycoside in the kidneys
Readout label: concentration at 14 day (ng/mL)
The reply should be a number in ng/mL, with the unit left off.

Query string: Please list concentration at 14 day recorded for the compound NC[C@H]1O[C@H](O[C@H]2[C@H](O)[C@@H](O[C@H]3O[C@H](CO)[C@@H](O)[C@H](N)[C@H]3O)[C@H](N)C[C@@H]2N)[C@H](N)C[C@@H]1O [Free tobramycin, tobramycin]
Result string: 100
